test system: CCRF-CEM leukemia; assay: NCI-60 one-dose screen, 48 h; settings: 10 µM
Compounds without any hit were thinned out: in the full panel of roughly 83,000, 20% have a hit. Activity calls are given as the source filed them. Rule for the calls: active = growth percent below 10; inactive = the rest.
Write down one outcome, taken from active, inactive

Compound: Cc1occc1-c1nnc(SCC(=O)c2ccc(NC(=O)CC(C)C)cc2)o1
Class Assignment: inactive

# input for lookup
Could you check what this test reported for Nc1c(C(=O)Nc2cccc(Br)c2)sc2nc3c(cc12)C(O)CCC3 (centres undefined) ?
inactive

* * *

system: NCI/ADR-RES ovarian; experiment: NCI-60 one-dose screen, 48 h (100 = growth as untreated, 0 = no growth, -100 = all killed); conditions: 10 µM
About 83,000 compounds went through this panel and 20% of them were active in at least one assay; those are over-represented in the sample as a whole.
Entries and their growth
Give the value, in units of %, as a plain number.

Molecule: COc1cc(/C(=C2/O[C@@H]([C@H]3COC(C)(C)O3)[C@H]3OC(C)(C)O[C@@H]23)c2ccc3ccccc3c2)cc(OC)c1OC
Measurement Units: %
growth: 25.9
//
Molecule: CN(CCc1ccccn1)c1ccccc1
Measurement Units: %
growth: 105
//
Molecule: COc1cc(NC(=O)CCSc2nc3ccc(C)cc3c(=O)n2Cc2ccccc2)cc(OC)c1OC
Measurement Units: %
growth: 83.8
//
Molecule: O=C(Nc1cccc(-n2cc(-c3ccncc3)c(-c3ccc(O)c(Cl)c3)n2)c1)c1ccc(N2CCOCC2)c(C(F)(F)F)c1
Measurement Units: %
growth: 43.1
//
Molecule: CSc1nc(=O)n(Cc2ccc(Cl)cc2)c(=O)[nH]1
Measurement Units: %
growth: 105

Field request: growth | item: CC(=O)N1N=C(c2ccc(Cl)cc2)CC1c1sc(Cl)nc1Cl (stereo unspecified)
80.7

Need growth of N=C(N)c1ccc(-c2ccc(-c3ccco3)o2)cc1 , thanks.
93.1

Request the reported growth associated with O=S(=O)(NCCCNc1nccc(-c2c(-c3ccc(F)cc3)nc3sccn23)n1)c1ccc(F)cc1
31.3

I'd like to know its growth. The molecule in question is CC(=O)N1C/C(=C/c2ccc(Cl)cc2)C(=O)/C(=C/c2ccc(Cl)cc2)C1
10.4

For O=[N+]([O-])c1cccc(N=Cc2ccc3c(c2)OCO3)c1 , what is its reported growth?
105

Consider the molecule Cn1c([N+](=O)[O-])cnc1/C=C1\Oc2ccccc2C1=O and give its measured growth.
-5.9

May I ask what growth has been recorded for COc1ccc(Nc2cc(C)nc(NCCCNc3ccnc4cc(Cl)ccc34)n2)cc1 ?
29

So what's the measured growth for this one? C#Cc1ccc(-n2c(/C=C/c3ccc(O)cc3)nc3ncccc3c2=O)cc1
55

Give the measured growth of Cc1cc(C)c(NC(=O)c2sc3nc4c(cc3c2N)C(=O)CCC4)c(C)c1 .
-8.04

Suppose we examine the molecule O=C1/C(=C/c2ccc([N+](=O)[O-])s2)Oc2ccccc21 ; what growth value has been reported?
12.3

May I ask what growth has been recorded for c1ccc([C@H]2CN3CCSC3=N2)cc1 ?
103

Would you mind telling me what growth value was observed for N=C(N)c1ccc(-c2ccc(-c3cccs3)s2)cc1 ?
56.1
